# Assay Procedure: total protein half-life in vivo (active degradation + dilution); higher = more stable protein
# Study Conditions: wild type E. coli NCM3722; growth: C-lim chemostat; doubling time 6 h
Property: total protein half-life in vivo; scope: individual sequences
Give just the numeric value; h need not be written.

Polymer Sequence | Measurement Unit | Quantitative Result
MTMNSFERRNKIIQLVNEQGTVLVQDLAGVFAASEATIRADLRFLEQKGVVTRFHGGAAKIMSGNSETETQEVGFKERFQLASAPKNRIAQAAVKMIHEGMTDPTHVIWTQA | h | 5.62
MPPRRYNPDTRRDELLERINLDIPGAVAQALREDLGGTVDANNDITAKLLPENSRSHATVITRENGVFCGKRWVEEVFIQLAGDDVTIIWHVDDGDVINANQSLFELEGPSRVLLTGERTALNFVQTLSGVASKVRHYVELLEGTNTQLLDTRKTLPGLRSALKYAVLCGGGANHRLGLSDAFLIKENHIIASGSVRQAVEKASWLHPDAPVEVEVENLEELDEALKAGADIIMLDNFETEQMREAVKRTNGKALLEVSGNVTDKTLREFAETGVDFISVGALTKHVQALDLSMRFR | h | 5.83
MSDNIRVGLIGYGYASKTFHAPLIAGTPGQELAVISSSDETKVKADWPTVTVVSEPKHLFNDPNIDLIVIPTPNDTHFPLAKAALEAGKHVVVDKPFTVTLSQARELDALAKSLGRVLSVFHNRRWDSDFLTLKGLLAEGVLGEVAYFESHFDRFRPQVRDRWREQGGPGSGIWYDLAPHLLDQAITLFGLPVSMTVDLAQLRPGAQSTDYFHAILSYPQRRVILHGTMLAAAESARYIVHGSRGSYVKYGLDPQEERLKNGERLPQEDWGYDMRDGVLTRVEGEERVEETLLTVPGNYPAYYAAIRDALNGDGENPVPASQAIQVMELIELGIESAKHRATLCLA | h | 5.54

Proceeding to the next sequence to report its total protein half-life in vivo.
IN: Query total protein half-life in vivo for MTMTRLKISKTLLAVMLTSAVATGSAYAENNAQTTNESAGQKVDSSMNKVGNFMDDSAITAKVKAALVDHDNIKSTDISVKTDQKVVTLSGFVESQAQAEEAVKVAKGVEGVTSVSDKLHVRDAKEGSVKGYAGDTATTSEIKAKLLADDIVPSRHVKVETTDGVVQLSGTVDSQAQSDRAESIAKAVDGVKSVKNDLKTK [P0AFH8]
OUT: 5.39

* * *

# Assay Procedure: total protein half-life in vivo (active degradation + dilution); higher = more stable protein
# Study Conditions: wild type E. coli NCM3722; growth: C-lim chemostat; doubling time 3 h
Readout Kind: total protein half-life in vivo (h)
Give just the numeric value; h need not be written.

IN: Query total protein half-life in vivo for "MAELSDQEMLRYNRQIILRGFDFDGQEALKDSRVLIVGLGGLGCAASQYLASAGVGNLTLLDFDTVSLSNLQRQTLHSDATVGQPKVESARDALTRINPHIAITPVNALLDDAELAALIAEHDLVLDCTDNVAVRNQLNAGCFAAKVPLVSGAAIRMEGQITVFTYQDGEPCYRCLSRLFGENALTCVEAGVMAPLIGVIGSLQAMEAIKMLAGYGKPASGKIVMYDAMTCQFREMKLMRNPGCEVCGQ"
OUT: 3.03

IN: Query total protein half-life in vivo for "MRLCDRDIEAWLDEGRLSINPRPPVERINGATVDVRLGNKFRTFRGHTAAFIDLSGPKDEVSAALDRVMSDEIVLDEGEAFYLHPGELALAVTLESVTLPADLVGWLDGRSSLARLGLMVHVTAHRIDPGWSGCIVLEFYNSGKLPLALRPGMLIGALSFEPLSGPAVRPYNRREDAKYRNQQGAVASRIDKD"
OUT: 2.85

IN: Query total protein half-life in vivo for MNTDTFMCSSDEKQTRSPLSLYSEYQRMEIEFRAPHIMPTSHWHGQVEVNVPFDGDVEYLINNEKVNINQGHITLFWACTPHQLTDTGTCQSMAIFNLPMHLFLSWPLDKDLINHVTHGMVIKSLATQQLSPFEVRRWQQELNSPNEQIRQLAIDEIGLMLKRFSLSGWEPILVNKTSRTHKNSVSRHAQFYVSQMLGFIAENYDQALTINDVAEHVKLNANYAMGIFQRVMQLTMKQYITAMRINHVRALLSDTDKSILDIALTAGFRSSSRFYSTFGKYVGMSPQQYRKLSQQRRQTFPG [P0ACH8]
OUT: 2.14
